src = PubChem BioAssay (NCI)

system: UACC-62 melanoma; experiment: NCI-60 one-dose screen, 48 h (100 = growth as untreated, 0 = no growth, -100 = all killed); conditions: 10 µM unless noted
Compounds without any hit were thinned out: in the full panel of roughly 83,000, 20% have a hit.
Response field label takes yes (1) when growth is strictly below 80% and no (0) in all other cases.

In [3]: df
Out[3]:
                                    molecule  assigned_class
 0                COc1cc(CCCO)c(OC)c(OC)c1OC          no (0)
 1  CCOC(=O)Cn1c(=O)c2c(c3ccccc3n2C)n2nnc(-c3ccccc3)c12          no (0)
 2  CCOC(=O)c1cnn2c3ccccc3n(S(=O)(=O)c3ccc(OC)cc3)c12         yes (1)
 3  CCOC(=O)c1cn2ncnc(Oc3ccc(NC(=O)NCCN(C)C)c(Cl)c3)c2c1C         yes (1)
 4  CCCCNC(=O)Oc1ccc(/C(=C(\C)c2ccc(Cl)cc2)c2ccc(OCCN(CC)CC)cc2)cc1         yes (1)
 5  COc1cccc(Cc2cc(-c3ccccc3)nn(CC(=O)c3ccccc3)c2=O)c1         yes (1)
 6  O=C(Cc1ccc(F)c(Cl)c1)Nc1cc(C2(C(F)(F)F)CC2)nn1Cc1ccccc1         yes (1)
 7  CCc1ccc(Oc2c(-c3ccc(OCCc4cccc(C(F)(F)F)c4)cc3O)n[nH]c2C(F)(F)F)cc1         yes (1)
 8  Cc1ccc(-c2nc(N3CCN(C(=O)c4ccc(OC(F)(F)F)cc4)CC3)c3ccccc3n2)cc1         yes (1)
 9  O=C(/C=C/c1cccc2ccccc12)c1ccc(NC(=O)c2ccccc2CN2C(=O)c3ccccc3C2=O)cc1         yes (1)
10        Cc1nc2nc(SCC(=O)O)[nH]c2c(=O)[nH]1          no (0)
11           Cc1cc(-c2cc(C)c(N)cc2C)c(C)cc1N         yes (1)
12  COc1ccc(-c2cc(-c3cc(OC)c(OC)c(OC)c3)nc(N3CCOCC3)c2C#N)cc1         yes (1)
13  NCCCNc1nc2ccccc2c2c(=O)c3cc(F)cc(Cl)c3sc12          no (0)
14         COc1ccc(-c2ncnc3c2ncn3CC#CCCl)cc1         yes (1)
15  O=C1CCC(C(=O)NCCNCCNC(=O)C2CCC(=O)N2)N1 (stereo not given)          no (0)
16  CCN1C(=O)N(CC)C2Nn3c(s/c(=C4\C(=O)N(CCC(C)C)c5ccccc54)c3=O)=NC21 (stereo not given)         yes (1)
17  Cc1nc2ccccc2c(/C=C/c2ccc(Cl)cc2)c1C(=O)/C=C/c1cccs1         yes (1)

* * *

system: OVCAR-5 ovarian; experiment: NCI-60 one-dose screen, 48 h (100 = growth as untreated, 0 = no growth, -100 = all killed); conditions: 10 µM unless noted
The panel holds about 83,000 compounds, 20% with a hit somewhere; the sample as a whole holds those more often.
Output criterion met for growth not less than 70%; output criterion not met otherwise.

Compound	Target under test	Assigned class
Cc1cc(=O)oc2cc(OC(=O)CN3CCN(C)CC3)ccc12	OVCAR-5 ovarian	criterion met
COc1ccc(N2C(=O)C(Oc3ccccc3)C2c2ccc(C)cc2)cc1 (stereo unspecified)	OVCAR-5 ovarian	criterion met
Cc1c(C(=O)N[C@@H](Cc2ccccc2)C(=O)C(=O)NCc2ccc(F)cc2)[nH]c2ccccc2c1=O	OVCAR-5 ovarian	criterion met
Cc1ccccc1C(=O)NN	OVCAR-5 ovarian	criterion met
O=C(/C=C/c1ccc([N+](=O)[O-])o1)NNC(=O)c1cc2ccccc2cc1O	OVCAR-5 ovarian	criterion not met
Cc1ccc(C(=O)N/N=C/c2cccc(Oc3ccccc3)c2)cn1	OVCAR-5 ovarian	criterion met
N#Cc1cccc(NC(=O)c2cc(-c3ccc(F)cc3F)ccc2O)c1	OVCAR-5 ovarian	criterion not met
Cc1cc(=O)[nH]c(=O)n1Cc1cn(-c2c3ccccc3nc3ccccc23)nn1	OVCAR-5 ovarian	criterion met
O=C(CCCCCCSc1nc(-c2ccccc2)cc(-c2ccccc2)n1)NO	OVCAR-5 ovarian	criterion not met
CCc1cccc2c1S/C(=C/c1ccc(OC)cc1)C2=O	OVCAR-5 ovarian	criterion met
COc1ccc2cc(C(C)C(=O)Nc3ccc(-c4n[nH]c(=S)n4C4CCCCC4)cc3)ccc2c1 (stereo unspecified)	OVCAR-5 ovarian	criterion met
COc1cc(/C=C2\C(=O)Nc3ccc(Br)cc32)cc(OC)c1OC	OVCAR-5 ovarian	criterion met
O=c1n(Cc2ccc3ccccc3c2)ccn1Cc1ccc2ccccc2c1	OVCAR-5 ovarian	criterion met
O=C(CCN1C(=O)/C(=C/c2ccc(O)cc2)SC1=S)Nc1ccc(Cl)cc1	OVCAR-5 ovarian	criterion met
C/C(=C\C(=O)c1ccc(Cl)cc1)c1ccc(Cl)cc1	OVCAR-5 ovarian	criterion not met
Brc1ccc2[nH]cc(-c3nc(-c4c[nH]c5ccncc45)cs3)c2c1	OVCAR-5 ovarian	criterion not met
COc1ccc(C(=O)N=Nc2c(O)n(C)c3ccccc23)cc1	OVCAR-5 ovarian	criterion met
NCCNc1nc2ccccc2c2c(=O)c3cccc(F)c3sc12	OVCAR-5 ovarian	criterion met
CCCCCCCCCCCCCCCCCCOc1ccc(CC(=O)OCC[N+](C)(C)C)cc1	OVCAR-5 ovarian	criterion met
CCCCn1c(-c2ccc(-c3nc(-c4ccc(Cl)cc4)no3)cc2)nc(-c2ccccc2)c1-c1ccccc1	OVCAR-5 ovarian	criterion met
CCOC(=O)CCN(C(=O)Nc1ccccc1)C1CCCCC1	OVCAR-5 ovarian	criterion met
Cn1cc(C(=O)c2nc(-c3cn(C)c4ccc(F)cc34)no2)c2cc(F)ccc21	OVCAR-5 ovarian	criterion met
NC[C@@H]1O[C@H](O[C@@H]2[C@@H](CO)OC(O[C@@H]3[C@@H](O)[C@H](N)C[C@H](N)[C@H]3OC3O[C@H](CN)[C@@H](O)[C@H](O)[C@H]3N)[C@@H]2O)[C@H](N)[C@@H](O)[C@@H]1O (stereo partly specified)	OVCAR-5 ovarian	criterion met
CCOc1cccc(NC2=C(Br)C(=O)C(C)=C(C)C2=O)c1	OVCAR-5 ovarian	criterion met
COc1ccc2c(c1)c(-c1ccc(-c3cn(C)c4ccc(OC)cc34)o1)cn2C	OVCAR-5 ovarian	criterion not met
COc1cc(Nc2cn[nH]c2-c2ccc(Cl)cc2)cc(OC)c1OC	OVCAR-5 ovarian	criterion not met
COC1=C(C)C(=O)c2c(c(CCCl)c3n2CCC3OC(C)=O)C1=O (stereo unspecified)	OVCAR-5 ovarian	criterion not met
CN(C)CCS(=O)(=O)Nc1cc(-c2ccc3ncc(C#N)c(Nc4ccc(F)c(Cl)c4)c3c2)cnc1Cl	OVCAR-5 ovarian	criterion not met
COc1cc(C(=O)N/N=C/c2cc3cc(OCc4ccccc4)ccc3nc2OC)cc(OC)c1OC	OVCAR-5 ovarian	criterion met
CCN(CC)S(=O)(=O)c1ccc(NC(=O)CSc2nnc(C)n2-c2ccccc2)cc1	OVCAR-5 ovarian	criterion met
CCOC(=O)NCCc1ccccc1	OVCAR-5 ovarian	criterion met
Cc1cccc2c3c(sc12)C(c1ccc(F)cc1)C(C#N)=C(N)O3 (stereo unspecified)	OVCAR-5 ovarian	criterion not met
CCCCCCCCCCCCCCCCCCOc1ccccc1CC(=O)OCC[N+](CC)(CC)CC	OVCAR-5 ovarian	criterion not met
COc1ccc(C(Cc2ccccc2)NCCN2CCOCC2)cc1 (stereo unspecified)	OVCAR-5 ovarian	criterion met
NCCCNc1nc2ccccc2c2c(=O)c3cc(OC(F)(F)F)ccc3sc12	OVCAR-5 ovarian	criterion met
CCCCCCNC(=O)Oc1ccc(/C(=C(\C)c2ccc(Cl)cc2)c2ccc(OCCCN(C)C)cc2)cc1	OVCAR-5 ovarian	criterion met
COC1=C(C)C(=O)c2c(c(CCCl)c3n2CCC3O)C1=O (stereo unspecified)	OVCAR-5 ovarian	criterion not met
NCCCNc1nc2ccccc2c2c(=O)c3cccc(F)c3sc12	OVCAR-5 ovarian	criterion not met
CCCCCCn1c(-c2ccc(C(=O)O/N=C(\N)c3ccc4c(c3)OCO4)cc2)nc(-c2ccccc2)c1-c1ccccc1	OVCAR-5 ovarian	criterion not met
O=C(Nc1ccc(Br)cc1F)c1cc(Br)ccc1O	OVCAR-5 ovarian	criterion not met
